Entries annotated with measured growth inhibition
protocol_notes: NCI Yeast Anticancer Drug Screen. Data for the cln2 rad14 strain (AID 165);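 further: 0% = growth equal to vehicle treated cultures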
reported_conditions: S. cerevisiae cln2 rad14 strain, at 50.0 µM, stronger effect = higher value
This is part of a sample that, as a whole, favours compounds with a hit. Of some 79,000 tested, about 15% had one in any assay.
// units = %; emit number, no label

Q: Sample NCCCCC(N)C(=O)O.[Cu+2] (configuration not stated) — what was its growth inhibition?
Result: -6

Q: Thanks! And CC(=O)NC(Cc1ccc(C)cc1)C(=O)O (configuration not stated) ?
Result: -3.5

Q: Also need `O=C1c2ccccc2CC12CCC1(CC2)OCCO1` , thanks.
Result: 26.6

Q: Likewise for `Cc1cccc(Nc2nnc(Nc3cccc(C)n3)c3ccccc23)n1` ?
Result: -4.25

Q: Next compound up: O=C(O)C(O)c1cccc([N+](=O)[O-])c1 (configuration not stated)
Result: -7.05

Q: // next record `O=P(O)(CP(=O)(c1ccccc1)c1ccccc1)c1ccccc1`
Result: 16.2

Q: Do the same for `O=c1nc2c(c(-c3ccc(Br)cc3)[nH]1)COC/C2=C\c1ccc(Br)cc1` please
Result: 8

Q: And then COC1=CC(=O)C(C2OC(=O)C(Cl)=C2Cl)=CC1=O (configuration not stated) , what is it?
Result: -11.4

Q: One more compound: `CCCCCCCCCCCCCCCC(=O)Nc1ccc(C(=O)C[n+]2ccc3c(NC(=O)CCC(=O)OC)cccc3c2)cc1`
Result: -0.95

Q: Item: O=C(CCNC(=O)OCc1ccccc1)NC(Cc1ccccc1)C(=O)OCc1ccccc1 (configuration not stated)
Result: -15.3

Q: Another compound to look at: `N#Cc1ccc(NC(=NCC(=O)O)Nc2ccc3ccccc3c2)cc1`
Result: 25.8

Q: Thanks! And `OCCCc1nc2ccccc2[nH]1` ?
Result: 8.85

---

protocol_notes: NCI Yeast Anticancer Drug Screen. Data for the mlh1 rad18 strain (AID 175)
reported_conditions: S. cerevisiae mlh1 rad18 strain growth inhibition; at 50.0 µM; stronger effect = higher value
The panel holds about 79,000 compounds, 15% with a hit somewhere; the sample as a whole holds those more often.
measurement_kind: growth inhibition (%)
Answer with a number only, understood to be in %.

[[record]]
compound = "COc1cc2c[n+]3ccc4ccccc4c3c(N)c2cc1OC"
measurement_unit = "%"
recorded_value = -4.85

[[record]]
compound = "Nc1[nH]c(=O)nc2snnc12"
measurement_unit = "%"
recorded_value = -57.9

[[record]]
compound = "CC1C(O)CC23COC(=O)C2=CCCC3C1(C)CCC1=CC(=O)OC1 (configuration not stated)"
measurement_unit = "%"
recorded_value = -20.9

[[record]]
compound = "CC1OC(OC(=O)c2ccc([N+](=O)[O-])cc2)CC(OC(=O)c2ccc([N+](=O)[O-])cc2)C1OC(=O)c1ccc([N+](=O)[O-])cc1 (configuration not stated)"
measurement_unit = "%"
recorded_value = -24.8

[[record]]
compound = "CC(=O)OCc1cc(=O)n2c([nH]c3ccccc32)c1C#N"
measurement_unit = "%"
recorded_value = -2.6


Q: Reported growth inhibition for CC1C=CC(O)[C@]2(CO)CC3(CCC12)OCCO3 (some centres not stated) : what is it?
Result: -16.3

---

protocol_notes: NCI Yeast Anticancer Drug Screen. Data for the mec2-1 strain (AID 157)
reported_conditions: S. cerevisiae mec2-1 strain, at 50.0 µM, stronger effect = higher value
About 79,000 compounds went through this panel and 15% of them were active in at least one assay; those are over-represented in the sample as a whole.
Listing of recorded growth inhibition by entry.
Report only the number, with the unit % understood.

The following compounds have reported results that may help.
[[record]]
compound = "CNc1ccc(C(=O)O)cc1"
measurement_unit = "%"
recorded_value = -14

[[record]]
compound = "COC(=O)c1sc2c(=O)c(C(=O)OC)c(C(=O)OC)sc2c(=O)c1C(=O)OC"
measurement_unit = "%"
recorded_value = 27.4

[[record]]
compound = "CC(C)NC(=O)OCc1c(COC(=O)NC(C)C)c2cccn2c2c1cnn2-c1ccccc1"
measurement_unit = "%"
recorded_value = 0.6

[[record]]
compound = "ClC1C2c3ccccc3C1C1C2C2(c3ccccc3)OC1(c1ccccc1)c1ccccc12 (stereo unspecified)"
measurement_unit = "%"
recorded_value = 1.65

[[record]]
compound = "N#C/C(C(N)=O)=C1\\CCCc2sccc21"
measurement_unit = "%"
recorded_value = 5.9


Lab note: next compound to report on.
Q: # query: growth inhibition of entry `C/C(=N\N(C)S(=O)(=O)c1ccc(C)cc1)c1ccccc1`
Result: -6.9

Taken from PubChem BioAssay (NCI).
